- system: Dual specificity tyrosine-phosphorylation-regulated kinase 1B (Homo sapiens, UniProt Q9Y463)
- Sequence (Q9Y463 whole entry): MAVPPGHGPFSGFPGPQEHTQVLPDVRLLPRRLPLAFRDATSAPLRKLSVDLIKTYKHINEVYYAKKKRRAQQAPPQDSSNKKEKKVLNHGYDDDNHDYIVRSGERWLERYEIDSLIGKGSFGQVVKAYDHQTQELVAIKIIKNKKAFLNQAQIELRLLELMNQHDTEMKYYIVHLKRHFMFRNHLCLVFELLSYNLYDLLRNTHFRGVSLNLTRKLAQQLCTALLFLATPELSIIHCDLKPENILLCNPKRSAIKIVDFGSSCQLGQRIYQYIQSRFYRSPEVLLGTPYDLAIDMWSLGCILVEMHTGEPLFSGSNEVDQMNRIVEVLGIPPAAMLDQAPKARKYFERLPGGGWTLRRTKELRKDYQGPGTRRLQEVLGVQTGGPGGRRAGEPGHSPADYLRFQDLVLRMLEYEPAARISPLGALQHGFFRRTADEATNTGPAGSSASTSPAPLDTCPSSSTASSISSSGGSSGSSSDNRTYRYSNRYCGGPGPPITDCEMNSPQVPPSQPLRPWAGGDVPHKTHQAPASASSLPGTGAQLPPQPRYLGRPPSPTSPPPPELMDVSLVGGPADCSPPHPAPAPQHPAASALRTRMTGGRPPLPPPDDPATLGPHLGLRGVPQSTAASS
- run-description: Inhibition of N-terminal GST tagged human DYRK1B expressed in Sf21 cells incubated for 60 mins by ADP-Glo assay
property-measured: IC50

Below are worked cases with known answers.
[[record]]
compound_structure = "CNC(=O)c1cnc2[nH]cc(-c3ccc4nccc(Cl)c4c3)c2c1"
property_measured = "IC50"
result = "< 10 nM"

[[record]]
compound_structure = "CNC(=O)c1cnc2[nH]cc(-c3cc(F)c4nccc(-c5cccnc5)c4c3)c2c1"
property_measured = "IC50"
result = "< 10 nM"

[[record]]
compound_structure = "CNC(=O)c1cnc2[nH]cc(-c3cc(C)c4nccc(-c5cccnc5)c4c3)c2c1"
property_measured = "IC50"
result = "≥ 100 nM"

[[record]]
compound_structure = "N[C@H]1CCN(c2ccnc3ccc(-c4c[nH]c5ncccc45)cc23)C1"
property_measured = "IC50"
result = "< 10 nM"


Continue with the molecule presented below.
Lookup result for CC(=O)Nc1cnc2[nH]cc(-c3cc(F)c4nccc(-c5cccnc5)c4c3)c2c1 ; measured IC50: < 10 nM

----------
I'd be grateful if you could share measured pIC50 for these entries.
- system: Dual specificity tyrosine-phosphorylation-regulated kinase 1A (Homo sapiens, UniProt Q13627)
- run-description: Inhibition of N-terminal GST tagged human DYRK1A expressed in Sf21 cells incubated for 30 mins by ADP-Glo assay
pIC50: −log10 of the molar value.

[[record]]
compound_structure = "NCCCNC(=O)c1cnc2[nH]cc(-c3cc(Cl)c4ncccc4c3)c2c1"
result = "> 8.00"

[[record]]
compound_structure = "N[C@H]1CC[C@H](Nc2c(NCC3CCOCC3)cnc3ccc(-c4c[nH]c5ncc(C(=O)NCc6cccnc6)cc45)cc23)CC1"
result = "> 8.00"


Give pIC50 for each listed item.
1. Fc1cc(-c2c[nH]c3ncccc23)cc2cccnc12
2. C=CCCCc1ccnc2ccc(-c3c[nH]c4ncc(CN(C)CC=C)cc34)cc12
3. O=C(NCc1ccccc1)c1cnc2[nH]cc(-c3cc(F)c4ncccc4c3)c2c1

Reply |
> 8.00
> 8.00
> 8.00

----------
Provide the recorded IC50 for the entries that follow.
- system: Dual specificity tyrosine-phosphorylation-regulated kinase 1B (Homo sapiens, UniProt Q9Y463)
- run-description: Inhibition of N-terminal GST tagged human DYRK1B expressed in Sf21 cells incubated for 60 mins by ADP-Glo assay

[[record]]
compound_structure = "CNC(=O)c1cnc2[nH]cc(-c3cc(F)c4nccc(CCc5ccccc5)c4c3)c2c1"
property_measured = "IC50"
result = "< 10 nM"

[[record]]
compound_structure = "Cc1cc(-c2c[nH]c3ncccc23)cc2cccnc12"
property_measured = "IC50"
result = "≥ 100 nM"

[[record]]
compound_structure = "C=CCN(C)C(=O)c1cnc2[nH]cc(-c3cc(F)c4ncccc4c3)c2c1"
property_measured = "IC50"
result = "< 10 nM"

[[record]]
compound_structure = "Cc1cc(-c2c[nH]c3ncccc23)cc2c(-c3ccccc3)ccnc12"
property_measured = "IC50"
result = "≥ 100 nM"


Parameters: items (list). Returns: IC50 for each item.
1. Fc1cc(-c2c[nH]c3ncccc23)cc2c(-c3cccnc3)ccnc12
2. NCCCNC(=O)c1cnc2[nH]cc(-c3cc(F)c4nccc(-c5cccnc5)c4c3)c2c1
3. CNC(=O)c1cnc2[nH]cc(-c3ccc4nccc(-c5cccnc5)c4c3)c2c1

Reply |
1: < 10 nM; 2: < 10 nM; 3: < 10 nM

----------
- system: Dual specificity tyrosine-phosphorylation-regulated kinase 1B (Homo sapiens, UniProt Q9Y463)
- run-description: Inhibition of N-terminal GST tagged human DYRK1B expressed in Sf21 cells incubated for 60 mins by ADP-Glo assay
Provide the recorded IC50 for the entries that follow.

Sample answers from the record:
[[record]]
molecule = "C=CCN(C)C(=O)c1cnc2[nH]cc(-c3cc(OC)c4ncccc4c3)c2c1"
result = "≥ 100 nM"

[[record]]
molecule = "CNC(=O)c1cnc2[nH]cc(-c3ccc4ncc(NC(C)=O)c(N5CCOCC5)c4c3)c2c1"
result = "< 10 nM"

[[record]]
molecule = "C=CC1CN2CCC1CC2[C@H](O)c1ccnc2ccc(-c3c[nH]c4ncccc34)cc12 (some centres undefined)"
result = "< 10 nM"


Your task in this section: give IC50 for each listed record.
1. N[C@@H]1CCCN(c2ccnc3c(F)cc(-c4c[nH]c5ncc(C(=O)NCc6cccnc6)cc45)cc23)C1
2. N[C@H]1CC[C@H](Nc2ccnc3ccc(-c4c[nH]c5ncccc45)cc23)CC1
3. c1cnc2[nH]cc(-c3ccc4nccc(-c5ccncc5)c4c3)c2c1
4. Nc1cnc2ccc(-c3c[nH]c4ncc(C(=O)NCc5cccnc5)cc34)cc2c1

Reply |
1: < 10 nM; 2: ≥ 100 nM; 3: < 10 nM; 4: < 10 nM

I need IC50 for every entry listed below, if you could help.
1. N[C@@H]1CCCN(c2ccnc3c(F)cc(-c4c[nH]c5ncc(CNCc6ccccc6)cc45)cc23)C1
2. N[C@@H]1CCCN(c2ccnc3c(F)cc(-c4c[nH]c5ncc(C(=O)NCc6cncnc6)cc45)cc23)C1

Reply |
< 10 nM
< 10 nM

----------
Please respond with reported IC50 for every item in the list.
- system: Dual specificity tyrosine-phosphorylation-regulated kinase 1B (Homo sapiens, UniProt Q9Y463)
- run-description: Inhibition of N-terminal GST tagged human DYRK1B expressed in Sf21 cells incubated for 60 mins by ADP-Glo assay

Below, 2 compounds whose answers are already recorded.
[[record]]
compound_structure = "Clc1cc(-c2c[nH]c3ncccc23)cc2cccnc12"
result = "< 10 nM"

[[record]]
compound_structure = "NCCCNC(=O)c1cnc2[nH]cc(-c3cc(Cl)c4ncccc4c3)c2c1"
result = "< 10 nM"


The following compounds each have a reported value; give each one's IC50.
1. CNC(=O)c1cnc2[nH]cc(-c3cc(F)c4nccc(N5CCC[C@@H](N)C5)c4c3)c2c1
2. CNC(=O)c1cnc2[nH]cc(-c3ccc4nccc(N5CCOCC5)c4c3)c2c1

Reply |
1. < 10 nM
2. < 10 nM

Dear colleague, could you send me IC50 for each of the items below? Thanks.
1. CNC(=O)c1cnc2[nH]cc(-c3ccc4ncccc4c3)c2c1
2. Fc1cc(-c2c[nH]c3ncc(CNCc4ccccc4)cc23)cc2c(-c3cccnc3)ccnc12
3. CC(=O)N1CCC(Nc2c(N)cnc3ccc(-c4c[nH]c5ncccc45)cc23)CC1
4. CNC(=O)c1cnc2[nH]cc(-c3cc(OC)c4ncccc4c3)c2c1
5. c1cnc2[nH]cc(-c3ccc4ncc(NCc5ccoc5)cc4c3)c2c1
6. COc1cc(-c2c[nH]c3ncccc23)cc2cccnc12
7. O=C(NCc1cccnc1)c1cnc2[nH]cc(-c3ccc4ncc(NCC5CCOCC5)cc4c3)c2c1

Reply |
["< 10 nM", "< 10 nM", "< 10 nM", "≥ 100 nM", "< 10 nM", "≥ 100 nM", "< 10 nM"]

For every item below, please supply its IC50.
1. CNC(=O)c1cnc2[nH]cc(-c3cc(F)c4ncccc4c3)c2c1
2. c1cnc2ccc(-c3c[nH]c4ncccc34)cc2c1

Reply |
1. < 10 nM
2. < 10 nM

Measured IC50, COc1cc(-c2c[nH]c3ncc(C(N)=O)cc23)cc2c(-c3cccnc3)ccnc12 : ≥ 100 nM
